B1: library; numbered along this chain (parent)
chain: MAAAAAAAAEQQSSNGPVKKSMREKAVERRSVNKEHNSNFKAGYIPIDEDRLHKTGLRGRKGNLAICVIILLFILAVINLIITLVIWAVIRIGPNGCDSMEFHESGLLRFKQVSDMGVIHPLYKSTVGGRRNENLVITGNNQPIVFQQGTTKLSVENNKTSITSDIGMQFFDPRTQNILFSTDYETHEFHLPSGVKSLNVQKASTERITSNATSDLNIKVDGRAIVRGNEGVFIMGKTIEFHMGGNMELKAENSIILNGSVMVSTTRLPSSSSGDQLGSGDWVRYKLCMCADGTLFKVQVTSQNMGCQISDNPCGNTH

- Variants of: B1
- ASSAY PROCEDURE: SGCB cell-surface expression functional score (HA stain, bin4 vs bin1, normalised to synonymous) (log10 ratio); higher = more cell-surface SGCB (functional)
RECORDED ENDPOINT: SGCB cell-surface expression functional score (log10)

MUTANT	READING
T238V	0.95
K34P	0.25
D275K	-0.82
S13P	0.2
G106Q	-1.48
T126F	0.32
A88H	0.49
G194N	0.05
N63D	-0.06
G245N	0.59
N33S	-0.01
N141T	-0.25
N229T	0.29
S14M	0.08
N199P	-1.11
L179Q	-0.03
D183A	1.15
L179W	1.37
S114D	-1.53
G236I	-1.64
H242K	1.04
C288G	-0.27
S38Q	-0.18
N63H	0.28
R30F	0.27
R131M	0.59
I137G	-1.08
A76W	0.14
S31M	-0.69
V283N	0.35
L198Q	-1.42
G274S	0.17
E28I	0.42
